- Tested on: GB4
- test_method_notes: qHTS profiling for inhibitors of Plasmodium falciparum proliferation (AID 504749); also: nearly all actives have a fitted effect of over 60% in size
- measurement_parameters: P. falciparum in erythrocytes, SYBR Green DNA, 72 h; series mostly up to 12.8 µM
Results filed as inconclusive are left out. Activity calls are given as the source filed them. Calls follow the shape of the dose curve; as a rule, active = well fitted inhibition curve with a large enough effect; inconclusive = small, poorly fitted or top-dose-only effect; inactive = flat fitted curve, though single readings scatter.
Outcome (select one): active, inactive

Example entries and their recorded answers appear below.
- N[C@@H](CO)C(=O)NNCc1ccc(O)c(O)c1O: inactive
- O=C(O)/C=C\c1ccc(Cn2ccnc2)cc1: inactive
- O=C(Cc1cccs1)NC1C(=O)N2C(C(=O)[O-])=C(C[n+]3ccccc3)CSC12 (centres undefined): inactive
- CCN(CC)CCC[C@H](C)Nc1c2ccc(Cl)cc2nc2ccc(OC)cc12: active
- CC(=O)OCC1=C(C(=O)O)N2C(=O)[C@@H](NC(=O)CSc3ccncc3)[C@@H]2SC1: inactive
- CCCN(CCC)C(=O)[C@@H](CCC(=O)O)NC(=O)c1ccccc1: inactive

Exercise: Status in this test for NC(N)=NC[C@@H]1COC2(CCCCC2)O1 ?
Key: inactive

Exercise: In this assay, the call recorded for CC[C@]1(C)CC(=O)NC1=O was what?
Key: inactive

Exercise: Test call for this compound, please: NC(=O)c1cc[n+](CC2=C(C(=O)O)N3C(=O)[C@@H](NC(=O)[C@H](c4ccccc4)S(=O)(=O)[O-])[C@@H]3SC2)cc1
Key: active

Exercise: Look up the recorded call for C[n+]1ccccc1/C=N\O in this test.
Key: inactive

====

Listed below: activity change, negative = inhibition values for each entry.
- test_method_notes: NFAT Signaling Pathway (AID 444);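 also: carbachol stimulus at about its EC50 of 1 µM final; % is scaled to controls: 0 for no effect and ±100 for the full control effect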
- measurement_parameters: Jurkat NFAT-bla M1, carbachol, beta-lactamase ratio, 5 h; at 7.69 µM (top of the series) unless noted
Inconclusive results are not listed.
Output spec: scalar in %, unitless text.

Below, each entry is followed by its recorded activity change, negative = inhibition result.
- COCC(=O)N1CCC2(CCCN(Cc3nccs3)C2)CC1: -25.4
- Cc1cccc(CNc2cc(-c3ccoc3)ncn2)c1: 12
- COc1ccccc1CN1CC[C@@]2(CCCN(C(=O)c3ccco3)C2)C1: -21.8

Continue with the compound presented below.
For record CS(=O)(=O)N1CCC2(CC1)CN(c1ccccc1)C2 the listed activity change, negative = inhibition is 24.3

====

- test_method_notes: Confirmation and Secondary Assay for Modulators of Hemoglobin Beta Chain Splicing at IVS2 705 locus (AID 930);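 also: HeLa cells stably expressing the EGFP-705 splicing reporter; GFP fluorescence per well restored by corrected splicing of the IVS2-705 intron in EGFP; % of control where 0% means no effect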
- measurement_parameters: HeLa EGFP-705 splicing reporter, GFP fluorescence, 48 h; series mostly up to 38.3 µM
Activity calls are given as the source filed them. The call rests on the fitted dose curve; in most records, active means well fitted activation curve with a large enough effect; inconclusive means small, poorly fitted or top-dose-only effect; inactive means flat fitted curve, though single readings scatter.
reported_endpoint: outcome

- CCCCCC/C=C\CCCCCCCc1cccc(O)c1C(=O)O: inactive
- c1ccc2c(Nc3ccncc3)nc(-c3ccc4c(c3)OCO4)nc2c1: inactive
- Cc1cccc(CNc2ncncc2-c2ccccc2C(F)(F)F)c1: inactive
- CC(=O)NCCNc1nc(-c2ccc(N(C)C)cc2)nc2ccccc12: inactive

====

- tested_system: Cytochrome P450 3A4 (Homo sapiens)
- test_method_notes: qHTS Assay for Inhibitors and Substrates of Cytochrome P450 3A4 (AID 884); also: nearly all actives have a fitted effect of over 50% in size; also: potency is read from the fitted curve at half-maximal effect
- measurement_parameters: recombinant CYP3A4, Luciferin-PPXE luminescence; series mostly up to 57.1 µM
Results filed as inconclusive are left out. The source made the active and inactive calls. Calls follow the shape of the dose curve; as a rule, active = well fitted inhibition curve with a large enough effect; inconclusive = small, poorly fitted or top-dose-only effect; inactive = no such curve, though single readings can be large or run the other way.
reported_endpoint: Potency

• COc1ccccc1CCn1c(=O)c(-c2cccs2)nc2cncnc21 = 3.16 µM (active)
• c1ccc(Nc2ncnc3ccc(-c4cccnc4)cc23)cc1 = 2.51 µM (active)
• CCCNC(=O)N1N=C(c2ccc(N)cc2)c2cc3c(cc2[C@H]1C)OCO3 = 1.26 µM (active)
• COc1ccc(-c2cc(=O)c3c(OC)c(OC)c(OC)c(OC)c3o2)cc1 = 12.6 µM (active)
• CN1CCN(c2ncncc2-c2ccoc2)CC1 = 7.94 µM (active)
• c1ccc(C(c2ccccc2)N2CCCC3(CCNCC3)C2)cc1 = 1.26 µM (active)

For this compound ( O=c1cnc2cnc(OCc3ccccc3)nc2n1Cc1ccc(F)cc1 ), measured Potency is 5.01 µM (active)

Entry CN(Cc1ccco1)c1ncncc1-c1ccccc1C(F)(F)F — recorded Potency = 1.26 µM (active)

Measured Potency of O=C(c1cccc(F)c1)N1CCC[C@@]2(CCN(C(c3ccccc3)c3ccccc3)C2)C1 : 3.98 µM (active)

Record summary for O=C(c1cnccn1)N1CCC2(CC1)CCN(c1ncccn1)CC2 : reported Potency = inactive

# Potency (compound: CN(C)c1ccc(-c2cc(NCc3cccnc3)ncn2)cc1 ) is 3.16 µM (active)
